B1: GAGE1 (parent)
chain: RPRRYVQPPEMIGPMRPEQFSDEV

- Variants of: B1
- assay_details: protein stability index of a GFP-peptide fusion (GPS, HEK-293T) (PSI 1-6); higher = more stable;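 note: lentivirally expressed fusions sorted by FACS into six bins by GFP to DsRed ratio, PSI derived from sequencing read proportions per bin multiplied by bin number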
- condition_set: c terminus: a fixed tail appended
// false (0) strictly below 4 in protein stability index; true (1) otherwise

construct_sequence: RPRRYVQPPEMIPPMRPEQFSDEV [G13P]
assigned_label: true (1)

construct_sequence: RPRRYVQPPEMIGPMMPEQFSDEV [R16M]
assigned_label: false (0)

construct_sequence: RPRRYVQPPEMIGPQRPEQFSDEV [M15Q]
assigned_label: true (1)

construct_sequence: RPRRYVQCPEMIGPMRPEQFSDEV [P8C]
assigned_label: false (0)

construct_sequence: RPRRYVQHPEMIGPMRPEQFSDEV [P8H]
assigned_label: true (1)

construct_sequence: RPRRYVQPPEMIGPMRPEQFSVEV [D22V]
assigned_label: false (0)

construct_sequence: RPARYVQPPEMIGPMRPEQFSDEV [R3A]
assigned_label: false (0)

construct_sequence: RPRRYVQPPEMIGPMRPEQFSNEV [D22N]
assigned_label: false (0)

construct_sequence: RPRRYVQPPEMIGPMRPEQFSDIV [E23I]
assigned_label: false (0)

construct_sequence: RPRCYVQPPEMIGPMRPEQFSDEV [R4C]
assigned_label: false (0)

construct_sequence: RPRIYVQPPEMIGPMRPEQFSDEV [R4I]
assigned_label: false (0)

construct_sequence: RGRRYVQPPEMIGPMRPEQFSDEV [P2G]
assigned_label: false (0)

construct_sequence: RPRRYVQPSEMIGPMRPEQFSDEV [P9S]
assigned_label: true (1)

construct_sequence: RPRRYVQPPEMINPMRPEQFSDEV [G13N]
assigned_label: true (1)

construct_sequence: RPRRYVQPPEMIGPMRPEQFIDEV [S21I]
assigned_label: false (0)

construct_sequence: RPRRYVQPPEMIGHMRPEQFSDEV [P14H]
assigned_label: true (1)

construct_sequence: RPRRYVQPPEMIGPMRPEQFCDEV [S21C]
assigned_label: true (1)

construct_sequence: RPRRYVQPPEMIGPMRPYQFSDEV [E18Y]
assigned_label: false (0)

construct_sequence: RTRRYVQPPEMIGPMRPEQFSDEV [P2T]
assigned_label: false (0)

construct_sequence: RPRRYVQPPLMIGPMRPEQFSDEV [E10L]
assigned_label: false (0)

Reference source for all entries: the supplement of paper PMC10567573
